Exercise: state measured HLM Metabolism t1/2 for each of the compounds provided.
# procedure-text: Human liver microsome stability
# Assay type: in vitro ADME
# particulars: pooled human liver microsomes 0.5 mg/mL, 1 μM compound, NADPH 1 mM, 37° C., 0-60 min

Asked: HLM Metabolism t1/2 lookup needed for CC(c1ccn(C(F)F)c(=O)c1)N1C[C@@H](C)n2nc3c(c2C1=O)CN(C(=O)c1ccc(Cl)c(C(F)(F)F)c1)[C@H](C)C3 (single isomer, unassigned) [Compound 49B] , thanks.
Given back: >3 h

Asked: Then this compound: CC(c1cnc(NC2CC2)nc1)N1C[C@@H](C)n2nc3c(c2C1=O)CN(C(=O)c1ccc(Cl)c(Cl)c1)[C@H](C)C3 (single isomer, unassigned) [Compound 37A]
Given back: >3 h

Asked: How about CC(c1ccc(S(C)(=O)=O)cc1)N1C[C@@H](C)n2nc3c(c2C1=O)CN(C(=O)c1ccc(Cl)c(Cl)c1)[C@H](C)C3 (single isomer, unassigned) [Compound 15B] ?
Given back: >3 h

Asked: Same question for C[C@@H]1Cc2nn3c(c2CN1C(=O)c1ccc(Cl)c(C(F)(F)F)c1)C(=O)N([C@@H](C)c1ccc([S@](C)(=O)=NC#N)cc1)C[C@H]3C (relative stereo) [Compound 20D] please.
Given back: 1.47 h

Asked: Item: CC(c1ccn(CC(F)(F)F)c(=O)c1)N1C[C@@H](C)n2nc3c(c2C1=O)CN(C(=O)c1ccc(Cl)c(Cl)c1)[C@H](C)C3 (single isomer, unassigned) [Compound 51B]
Given back: >3 h

* * *

# procedure-text: Human liver microsome stability
# Format: in vitro ADME
# particulars: pooled human liver microsomes 0.5 mg/mL, 1 μM compound, NADPH 1 mM, 37° C., 0-60 min
Give HLM Metabolism t1/2 for every item shown.
Please reply with the bare figure in h and do not write the unit itself.

Asked: Fill in: HLM Metabolism t1/2 of CC(c1cnc(NC2CC2)nc1)N1C[C@@H](C)n2nc3c(c2C1=O)CN(C(=O)c1ccc(Cl)c(Cl)c1)[C@H](C)C3 (single isomer, unassigned) [Compound 37B] is ___
Given back: 0.892

Asked: What do we get for CC(c1ccc(C2(O)CC2)cc1)N1C[C@@H](C)n2nc3c(c2C1=O)CN(C(=O)c1ccc(Cl)c(C#N)c1)[C@H](C)C3 (single isomer, unassigned) [Compound 14B] ?
Given back: 1.17

Asked: Entry CC(c1ccn(C(C)C)c(=O)c1)N1C[C@@H](C)n2nc3c(c2C1=O)CN(C(=O)c1ccc(Cl)c(C(F)(F)F)c1)[C@H](C)C3 (single isomer, unassigned) [Compound 47B] please
Given back: 2.4

Asked: Proceed to CC(c1ccc(C(C)(C)O)nc1)N1C[C@@H](C)n2nc3c(c2C1=O)CN(C(=O)c1cc(Cl)c(Cl)cn1)[C@H](C)C3 (single isomer, unassigned) [Compound 57B]
Given back: 1.68

Asked: One more molecule: CC(c1ccc(-c2ccn(C)n2)cc1)N1C[C@@H](C)n2nc3c(c2C1=O)CN(C(=O)c1ccc(Cl)c(C#N)c1)[C@H](C)C3 (single isomer, unassigned) [Compound 21A]
Given back: 0.98

* * *

# System: HBV (HepG2.117 cell line, inducibly HBV producing)
# procedure-text: Anti-HBV activity, intracellular HBV DNA by real-time PCR in HepG2.117 cell line
# Format: cell-based, hepatitis B virus
# particulars: HepG2.117 cells, 3 days of treatment
measured-attribute: EC50 (µM)
Numeric answer only, unit µM assumed.

Asked: Which EC50 value belongs to CC(c1ccc(C(C)(C)O)nc1)N1C[C@@H](C)n2nc3c(c2C1=O)CN(C(=O)c1ccc(Cl)c(F)c1F)[C@H](C)C3 (single isomer, unassigned) [Compound 61A] ?
Given back: 2.34

Asked: Then this compound: CC(c1ccc(-n2cncn2)nc1)N1C[C@@H](C)n2nc3c(c2C1=O)CN(C(=O)c1ccc(Cl)c(Cl)c1)[C@H](C)C3 (single isomer, unassigned) [Compound 5A]
Given back: 0.087

Asked: Request: CC(c1cnc(C2CC2)cn1)N1C[C@@H](C)n2nc3c(c2C1=O)CN(C(=O)c1ccc(Cl)c(Cl)c1)[C@H](C)C3 (single isomer, unassigned) [Compound 3B]
Given back: 0.023
